- Test system: ACHN renal
- Experiment notes: NCI-60 one-dose screen, 48 h (100 = growth as untreated, 0 = no growth, -100 = all killed)
- Condition details: 10 µM
Compounds without any hit were thinned out: in the full panel of roughly 83,000, 20% have a hit.
Property label: growth (%)
Respond with the bare value in %.

For orientation, consider the following solved cases.
Compound	growth / %
COc1cc(-c2nc(-c3nnc(-c4ccccc4Cl)o3)c3ccccn23)cc(OC)c1OC	68.3
COc1ccccc1/C=C/C(=O)c1ccccc1	84.2
CCOC(=O)CCC(NC(=O)c1ccc(N)cc1)C(=O)OCC (stereo not drawn)	95.3
O=S(=O)(NCCNc1nccc(-c2c(-c3ccc(F)cc3)nc3sccn23)n1)c1ccc2ccccc2c1	56.6
C=C(NC(=O)C(=C)NC(=O)c1csc(C2=NC3c4csc(n4)C4NC(=O)c5csc(n5)C(C(C)(O)C(C)O)NC(=O)C5CSC(=N5)/C(=C/C)NC(=O)C(C(C)O)NC(=O)c5csc(n5)C3(CC2)NC(=O)C(C)NC(=O)C(=C)NC(=O)C(=C)NC(=O)C(C(C)C)NC2C=Cc3c(C(C)O)cc(nc3C2O)C(=O)OC4C)n1)C(N)=O (stereo not drawn)	-26.8

Query: Lab note: need growth with ACHN renal for entry CCCC(F)C(=O)O (stereo not drawn) , please look it up.
Reply: 106

Query: Okay, and "O=C1Nc2ccccc2C1=NC1CCCCC1" ?
Reply: 97.9

Query: Ok, now "N#CCCN1C/C(=C/c2ccc(Br)cc2)C(=O)/C(=C/c2ccc(Br)cc2)C1"
Reply: -53.5
